Test system: SDMA in HAP1 MTAP-intact cell line (PRMT5 inhibition)
Assay Details: SDMA in-cell western assay, HAP1 MTAP-intact cell line
Condition Details: Homo sapiens, HAP1, read-out: Hap1 MTAP intact IC50
# reported IC50; entries follow

# example entries with known answers
Molecule	IC50
CCN(C(=O)C(=O)Nc1cnc(N)c2cn[nH]c12)[C@H](C)c1ccc(C(F)(F)C(F)(F)F)cc1C	5 to 50 nM
C[C@@H](c1ccc(C(F)(F)C(F)(F)F)cc1F)N(C)C(=O)C(=O)Nc1cnc(N)c2cn[nH]c12	> 50 nM
C[C@H](c1ccc(C(F)(F)C(F)(F)F)cc1)N(C)C(=O)C(=O)Nc1cnc(N)c2cn[nH]c12	5 to 50 nM

I have this molecule here, CCN(C(=O)C(=O)Nc1cnc(N)c2cn[nH]c12)[C@H](C)c1ccc(C(F)(F)F)cc1C , and I need its recorded IC50.
5 to 50 nM

Reported IC50 for Nc1ncc(NC(=O)C(=O)N(Cc2ccccc2)Cc2ccccc2)c2[nH]ncc12 : what is it?
> 50 nM

Consider the molecule CCN(Cc1ccc(F)cc1C)C(=O)C(=O)Nc1cnc(N)c2cn[nH]c12 and give its measured IC50.
> 50 nM

Attribution: patent US20250136594A1
